- subject of test: rat 5-HT2A receptor (Rattus norvegicus)
- Sequence (P14842 whole entry): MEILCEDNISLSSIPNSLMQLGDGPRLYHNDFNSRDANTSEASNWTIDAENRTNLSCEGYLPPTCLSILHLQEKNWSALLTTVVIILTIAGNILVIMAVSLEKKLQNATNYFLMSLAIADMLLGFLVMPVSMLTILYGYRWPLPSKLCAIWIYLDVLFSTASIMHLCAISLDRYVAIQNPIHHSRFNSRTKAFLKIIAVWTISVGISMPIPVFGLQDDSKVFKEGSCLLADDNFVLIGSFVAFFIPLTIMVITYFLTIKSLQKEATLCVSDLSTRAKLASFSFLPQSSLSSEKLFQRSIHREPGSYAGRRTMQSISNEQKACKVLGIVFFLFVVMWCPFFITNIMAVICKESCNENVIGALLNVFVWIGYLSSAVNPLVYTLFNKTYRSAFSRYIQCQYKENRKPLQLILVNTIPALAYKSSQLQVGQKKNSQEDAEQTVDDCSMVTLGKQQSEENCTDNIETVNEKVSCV
property name: pKi
Just so you know, pKi here is -log10 of the concentration in molar units; reply with that number alone.

## Task Field request: pKi | item: Cl.O=C(O)C1CN(CCCn2nc3ccccn3c2=O)CCN1c1cccc(Cl)c1 (stereo not shown)
## Result 6.00
